Quick list: Emax per entry.
molecular target: human M2 receptor (Homo sapiens, UniProt P08172); details: read-out: Efficiency, boosting of the acetylcholine effect at EC20 acetylcholine concentration; M2-GIRK1/4 reporter cells
MEASUREMENT_KIND: Emax (%)

>>> df
                                   compound                               test_target  measurement_kind  value_measured
0  CC(C)C[C@@H](NC(=O)c1cn(-c2c(F)cc(F)cc2F)c2nc(N3C[C@@H](O)[C@@H](O)C3)ccc2c1=O)C(F)(F)F  human M2 receptor (Homo sapiens, UniProt P08172)              Emax             100
1  CC(NC(=O)c1cn(-c2c(F)cc(F)cc2F)c2nc(N3C[C@@H](O)[C@H](O)C3)ccc2c1=O)(C1CC1)C(F)(F)F (mixture of isomers) [Example 441]  human M2 receptor (Homo sapiens, UniProt P08172)              Emax             100
2  CC(NC(=O)c1cn(-c2c(F)cc(F)cc2F)c2nc(N3C[C@@H](O)[C@H](O)C3)ccc2c1=O)(C(F)(F)F)C(F)(F)F  human M2 receptor (Homo sapiens, UniProt P08172)              Emax             100
3  CC[C@@H](NC(=O)c1cn(-c2ccc(F)cc2F)c2nc(N3CCC(C)C3=O)ccc2c1=O)C(F)(F)F (stereo partly drawn)  human M2 receptor (Homo sapiens, UniProt P08172)              Emax              98
4  CC(NC(=O)c1cn(-c2c(F)cc(F)cc2F)c2nc(N3C[C@@H](O)CC3=O)ccc2c1=O)C(F)(F)C(F)(F)F (single isomer, unassigned) [Example 530]  human M2 receptor (Homo sapiens, UniProt P08172)              Emax            98.7
5  CC(C)C(NC(=O)c1cn(-c2c(F)cc(F)cc2F)c2nc(N3CCNC3=O)ccc2c1=O)C(F)(F)F (racemic)  human M2 receptor (Homo sapiens, UniProt P08172)              Emax            99.5

====

Quick list: Cooperativity (alpha factor) per entry.
Target: human M2 receptor (Homo sapiens, UniProt P08172)
Format: cell-based
Settings: shift in the acetylcholine dose-response curve (Allosteric EC50 shift, GraphPad PRISM); α >1 = positive cooperativity
Description: B-1.2. Determination of Positive Cooperativity (α Factor) In contrast to the EC50 determination of the test substances (see B-1.1), however, this is not done using one acetylcholine concentration; instead, every concentration of the test substance is combined with an acetylcholine 8-point dose-response curve. […]
MEASUREMENT_KIND: Cooperativity (alpha factor)

>>> df
                                   compound              measurement_kind  value_measured
0  CC(C)CC(NC(=O)c1cn(-c2ccc(F)cc2F)c2nc(N3CC[C@H](F)C3)ccc2c1=O)C(F)(F)F (stereo partly shown)  Cooperativity (alpha factor)              36
1  CC[C@@H](NC(=O)c1cn(-c2ccccc2F)c2nc(N3C[C@@H](O)CC3=O)ccc2c1=O)C(F)(F)F  Cooperativity (alpha factor)              30
2  CC[C@H](NC(=O)c1cn(-c2ccc(F)cc2F)c2nc(NCCF)ccc2c1=O)C(F)(F)F  Cooperativity (alpha factor)              26
3  O=C(NC(c1c(F)cccc1F)C(F)(F)F)c1cn(-c2ccc(F)cc2F)c2nc(N3C[C@@H](O)CC3=O)ccc2c1=O (mixture of isomers) [Example 244]  Cooperativity (alpha factor)              58
4  CC(COC(F)(F)F)NC(=O)c1cn(-c2ccc(F)cc2F)c2nc(N(C)C)ccc2c1=O (racemic)  Cooperativity (alpha factor)              12
5  CC[C@H](NC(=O)c1cn(-c2c(F)cccc2F)c2nc(N3C[C@@H](O)CC3=O)ccc2c1=O)C(F)(F)F  Cooperativity (alpha factor)              28
6  O=C(NC(c1ccccc1Cl)C(F)(F)F)c1cn(-c2ccc(F)cc2F)c2nc(N3C[C@@H](O)CC3=O)ccc2c1=O (single isomer, unassigned) [Example 213]  Cooperativity (alpha factor)              55

====

Quick list: pEC50 per entry.
biological target: human M2 receptor (Homo sapiens, UniProt P08172); conditions: Receptor activity EC50, allosteric potency at EC20 acetylcholine; M2-GIRK1/4 reporter cells; in some cases mean of two or more determinations
pEC50: −log10 of the molar value.
MEASUREMENT_KIND: pEC50

>>> print(df.to_string())
                                 mol_smiles  measurement_kind  value_measured
0  CC(C)C[C@H](NC(=O)c1cn(-c2c(F)cc(F)cc2F)c2nc(N3C[C@@H](O)[C@H](O)C3)ccc2c1=O)C(F)(F)F             pEC50            8.00
1  O=C(NC12CC(C1)C2)c1cn(-c2c(F)cc(F)cc2Cl)c2nc(N3C[C@@H](O)CC3=O)ccc2c1=O             pEC50            7.77
2  CC(C)[C@@H](C)NC(=O)c1cn(-c2c(F)cc(F)cc2F)c2nc(N3C[C@@H](O)CC3=O)ccc2c1=O             pEC50            7.51
3  C[C@H](NC(=O)c1cn(-c2c(F)cc(F)cc2F)c2nc(N3C[C@@H](O)CC3=O)ccc2c1=O)C1CC1             pEC50            7.62

====

target: human M2 receptor (Homo sapiens, UniProt P08172); details: Receptor activity EC50, M2-GIRK1/4 activation test, acetylcholine at EC20; allosteric potency; in some cases mean values from two or more determinations
Exam item: assign 1.0 to entries whose EC50 is below 40 nM and 0.0 to entries at or above 40 nM. Note that a value of exactly 40 nM receives 0.0.

>>> df
                                   compound  qualitative_label
0  CC[C@@H](NC(=O)c1cn(-c2c(F)cccc2F)c2nc(N3CC4CC4(O)C3)ccc2c1=O)C(F)(F)F (single isomer, unassigned) [Example 305]                1.0
1  CC[C@@H](NC(=O)c1cn(-c2ccc(F)cc2F)c2nc(N3C[C@@H](OC)CC3=O)ccc2c1=O)C(F)(F)F                1.0
2  CC[C@@H](NC(=O)c1cn(-c2ccc(F)cc2F)c2nc(N3CCC(O)(O)C(F)C3)ccc2c1=O)C(F)(F)F (mixture of isomers)                0.0
3  O=C(NC12CC3CC(CC(C3)C1)C2)c1cn(-c2ccc(F)cc2F)c2nc(N3CC[C@H](F)C3)ccc2c1=O                1.0
4  CN(C)c1ccc2c(=O)c(C(=O)NC34CC5CC(C3)C(F)(F)C(C5)C4)cn(-c3ccc(F)cc3F)c2n1                0.0
5  CC[C@@H](NC(=O)c1cn(-c2c(F)cccc2F)c2nc(N3C[C@@H](O)CC3=O)ccc2c1=O)C(F)(F)F                1.0

====

Quick list: EC50 per entry.
Target: human M2 receptor (Homo sapiens)
Sequence (P08172 1-466): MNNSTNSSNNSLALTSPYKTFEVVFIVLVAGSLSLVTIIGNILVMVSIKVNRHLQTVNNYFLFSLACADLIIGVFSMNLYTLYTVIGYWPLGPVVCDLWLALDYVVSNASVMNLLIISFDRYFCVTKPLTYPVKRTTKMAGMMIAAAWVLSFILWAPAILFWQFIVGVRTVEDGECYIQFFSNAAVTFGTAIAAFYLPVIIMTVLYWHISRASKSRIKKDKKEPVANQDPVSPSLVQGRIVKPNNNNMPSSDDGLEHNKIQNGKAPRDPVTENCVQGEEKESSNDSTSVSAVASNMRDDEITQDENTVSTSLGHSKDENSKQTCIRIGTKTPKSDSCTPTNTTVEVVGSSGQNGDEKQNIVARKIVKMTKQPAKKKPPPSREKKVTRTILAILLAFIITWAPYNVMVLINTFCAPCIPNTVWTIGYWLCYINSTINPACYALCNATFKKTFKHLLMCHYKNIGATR
Conditions: Receptor activity EC50, M2-GIRK1/4 activation test, acetylcholine at EC20; allosteric potency; in some cases mean values from two or more determinations
MEASUREMENT_KIND: EC50 (nM)

>>> print(df.to_string())
                                    compound  measurement_kind  value_measured
 0  O=C(NC(c1ccccc1Cl)C(F)(F)F)c1cn(-c2ccc(F)cc2F)c2nc(N3C[C@@H](O)CC3=O)ccc2c1=O (mixture of isomers) [Example 211]              EC50              21
 1  CCC(NC(=O)c1cn(-c2ccc(F)cc2F)c2nc(N(C)C)ccc2c1=O)C(F)(F)F (racemic)              EC50              26
 2  CCC(COC(F)(F)F)NC(=O)c1cn(-c2ccc(F)cc2F)c2nc(N3C[C@@H](O)CC3=O)ccc2c1=O (stereo partly shown)              EC50              75
 3  O=C(NC(c1c(F)cccc1F)C(F)(F)F)c1cn(-c2ccc(F)cc2F)c2nc(N3CCC(O)CC3=O)ccc2c1=O (single isomer, unassigned) [Example 255]              EC50              83
 4  CN(C)c1ccc2c(=O)c(C(=O)NC34CC5CC(CC(C)(C5)C3)C4)cn(-c3ccc(F)cc3F)c2n1              EC50              39
 5  CCC(NC(=O)c1cn(-c2ccccc2F)c2nc(N(C)C)ccc2c1=O)C(F)(F)F (racemic)              EC50              34
 6  CC[C@H](NC(=O)c1cn(-c2ccc(F)cc2F)c2nc(N(C)C)ccc2c1=O)C(F)(F)F              EC50              28
 7  CC[C@@H](NC(=O)c1cn(-c2c(F)cc(F)cc2F)c2nc(N3CCC(C)(O)C3)ccc2c1=O)C(F)(F)F (stereo partly shown)              EC50              34
 8  O=C(N[C@H](C1CC1)C(F)(F)F)c1cn(-c2c(F)cccc2F)c2nc(N3C[C@@H](O)CC3=O)ccc2c1=O (single isomer, unassigned)              EC50              28
 9  CC(C)CC(NC(=O)c1cn(-c2ccc(F)cc2F)c2nc(NCC(F)(F)F)ccc2c1=O)C(F)(F)F (racemic)              EC50             144
10  CC[C@@H](NC(=O)c1cn(-c2ccc(F)cc2F)c2nc(N3CCC4(C3)CC4(F)F)ccc2c1=O)C(F)(F)F (mixture of isomers)              EC50             112
11  O=C(NC12CC3CC(CC(C3)C1)C2)c1cn(-c2ccc(F)cc2F)c2nc(N3CCCC(O)C3)ccc2c1=O (racemic)              EC50              82
12  CC1(O)CCN(c2ccc3c(=O)c(C(=O)NC(C4CC4)C(F)(F)F)cn(-c4c(F)cccc4F)c3n2)C1 (racemic)              EC50              47

Where these numbers come from: patent US20190367516A1
